# Assay Summary: Pharmacokinetic evaluation of QC-56 in mouse brain
# Type: in vivo
# Run Conditions: mouse, iv; brain tissue, i.v. tail vein injection, male CD-1 mice
Readout: Cmax

[Q] Item under review: `Brc1ccc(CCC2(Cn3ccnc3)OCCO2)cc1.Cl` . Reported Cmax?
[A] 50200 ng/g

###

# Target Under Test: HO-1 (rat spleen) (Rattus norvegicus, UniProt P06762)
# Construct: Spleen microsomes were used as a source of HO-1; from tissue; host or cells: spleen microsomal fraction of adult male Sprague-Dawley rats
# Sequence (P06762 whole entry): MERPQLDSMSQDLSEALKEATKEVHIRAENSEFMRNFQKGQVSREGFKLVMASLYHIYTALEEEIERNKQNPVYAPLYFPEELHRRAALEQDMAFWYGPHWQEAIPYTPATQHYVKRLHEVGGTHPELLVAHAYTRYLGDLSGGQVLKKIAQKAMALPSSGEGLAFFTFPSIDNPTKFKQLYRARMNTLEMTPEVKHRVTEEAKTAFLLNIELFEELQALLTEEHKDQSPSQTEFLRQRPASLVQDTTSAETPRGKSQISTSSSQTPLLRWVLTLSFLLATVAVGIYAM
# Assay Summary: HO enzymatic activity in rat spleen microsomal fraction (CO formed from methemalbumin, gas chromatography)
# Format: biochemical
# Run Conditions: rat spleen microsomes; average ± standard deviation of replicate experiments; read-out: IC50 HO-1 (rat spleen)/μM
Counter-ions that a name gives are not always drawn.
Readout: IC50

[Q] # IC50 lookup, item `O=C(CCc1ccccc1)Cn1nnnc1-c1ccccc1`
[A] > 100 µM

[Q] Again, but for COC(=O)Nc1nc2ccc(C(=O)c3cccs3)cc2[nH]1 [Nocodazole, reference compound]
[A] > 100 µM

[Q] Same lookup for `c1ccc2[nH]c(NC3CCNCC3)nc2c1` , please.
[A] > 100 µM

[Q] Next compound up: c1ccc(CCC2(Cn3cnnn3)OCCO2)cc1 [hydrochloride]
[A] 39 µM

[Q] Next up: OC(CCc1ccc(Br)cc1)Cn1ccnc1 (racemic) [hydrochloride]
[A] 0.14 µM

[Q] Also, O=C(Cn1ccnc1)c1ccc2c(c1)CCC2 [hydrochloride] please.
[A] 4.6 µM

[Q] Next compound: OC(Cn1cncn1)(Cn1cncn1)c1ccc(F)cc1F [Fluconazole, reference compound]
[A] 80 µM

[Q] What about `Clc1ccc(/C(Cn2ccnc2)=N\Nc2ccccc2)cc1` ?
[A] > 100 µM

[Q] Now give it for Nc1ccc(OCC2CO[C@@](CCc3ccc(Cl)cc3)(Cn3ccnc3)O2)cc1 (stereo in doubt) [dihydrochloride] too.
[A] 1.4 µM

[Q] Next compound up: c1ccc(SCCCCn2ccnc2)cc1 [hydrochloride]
[A] 1.2 µM

[Q] Next entry: Clc1ccc(C2(Cn3ccnc3)OCCO2)c(Cl)c1 [hydrochloride]
[A] 29 µM

[Q] Param item: c1cn(Cc2ccc(Cn3ccnc3)cc2)cn1 [dihydrochloride]
[A] 86 µM

[Q] Also, O=C(CCCc1ccccc1)Cn1ccnc1 [hydrochloride] please.
[A] 1.5 µM

[Q] Can you handle CSC[C@@H]1CO[C@@](CCc2ccc(Cl)cc2)(Cn2ccnc2)O1 [hydrochloride] next?
[A] 9 µM

[Q] Now try O=C(Cn1cncn1)c1ccc(Cl)c(Cl)c1 [hydrochloride] .
[A] 1.3 µM

[Q] Can you handle `O=C(Cn1cncn1)c1ccc(Cl)cc1Cl` next?
[A] 4.1 µM

[Q] Then `c1ccc(CNCCCn2ccnc2)cc1` ?
[A] > 100 µM

[Q] Query c1ccc2[nH]cnc2c1 [Benzimidazole, reference compound] next
[A] > 100 µM

[Q] Please answer likewise for Oc1ccc(OCC2CO[C@@](CCc3ccc(Cl)cc3)(Cn3ccnc3)O2)cc1 (stereo in doubt) [hydrochloride]
[A] 1.8 µM

[Q] What do you get for O=C(Cn1ccnc1)c1cc(Cl)ccc1Cl [hydrochloride] ?
[A] 6.6 µM

[Q] Note, next up: Cc1nccn1CC(=O)CCc1ccccc1 [hydrochloride]
[A] > 100 µM

[Q] Note, next up: OC(CCc1ccccc1)Cn1cnnn1 (racemic) [hydrochloride]
[A] 56 µM

[Q] What would you report for Brc1ccc(C2(Cn3ccnc3)OCCO2)cc1 [hydrochloride] ?
[A] 12 µM

[Q] Also O=C(CCc1ccc(Cl)cc1)Cn1ccnc1 [hydrochloride] ?
[A] 4.7 µM

[Q] How about c1cn(C2C3CC4CC(C3)CC2C4)cn1 (centres unmarked) ?
[A] > 100 µM

[Q] Same thing, different compound: CC(=O)C(Cc1ccccc1)n1cncn1 (racemic)
[A] > 100 µM

[Q] Follow-up item: O=C(CCc1ccccc1)Cn1cnc(-c2ccccc2)c1-c1ccccc1 [hydrochloride]
[A] 40 µM

[Q] Try this compound next: c1cn(CCC23CC4CC(CC(C4)C2)C3)cn1 [hydrochloride]
[A] 3 µM

[Q] And `O=C(Cn1ccnc1)c1ccc(OCc2ccccc2)cc1` ?
[A] 11 µM

[Q] Follow-up entry: COC(=O)Nc1nc2cc(C(=O)c3ccc(F)cc3)ccc2[nH]1 [Flubendazol, reference compound]
[A] > 100 µM

[Q] Thanks! And c1ccc(CCC2(Cn3ccnc3)OCCO2)cc1 [hydrochloride] ?
[A] 0.7 µM

[Q] What do we get for ClC[C@@H]1CO[C@@](CCc2ccc(Cl)cc2)(Cn2ccnc2)O1 [hydrochloride] ?
[A] 3.5 µM

[Q] Now this one: O=C(CCc1ccccc1)Cn1cnc(-c2ccccc2)c1 [drawing 256, hydrochloride]
[A] 32 µM

[Q] Likewise for c1ccc(CCCCn2ccnc2)cc1 [hydrochloride] ?
[A] 3.5 µM

[Q] Check c1ccc(OCCn2ccnc2)cc1 [hydrochloride] too.
[A] 61 µM

[Q] Param item: O=C(CCc1ccccc1)Cn1cnc(-c2ccccc2)c1 [drawing 162, hydrochloride]
[A] 32 µM

[Q] Lookup O=C(Cn1ccnc1)c1cccc2ccccc12 [hydrochloride]
[A] 2.2 µM

[Q] Cool, now c1ccc(CCC2(Cn3cnc(-c4ccccc4)c3)OCCO2)cc1 [hydrochloride]
[A] > 100 µM

[Q] Queued: FC[C@@H]1CO[C@@](CCc2ccc(Cl)cc2)(Cn2ccnc2)O1 [drawing 85, hydrochloride]
[A] 1.2 µM

[Q] Then what about the compound Clc1ccc(C2(Cn3ccnc3)OCCO2)cc1 [hydrochloride] ?
[A] 19 µM

[Q] Cool, now Nc1ccccc1SC[C@H]1CO[C@](CCc2ccc(Cl)cc2)(Cn2ccnc2)O1 [hydrochloride]
[A] ~4.2 µM
